- SYSTEM: 5-hydroxytryptamine receptor 6 (Homo sapiens, UniProt P50406)
- Sequence (P50406 whole entry): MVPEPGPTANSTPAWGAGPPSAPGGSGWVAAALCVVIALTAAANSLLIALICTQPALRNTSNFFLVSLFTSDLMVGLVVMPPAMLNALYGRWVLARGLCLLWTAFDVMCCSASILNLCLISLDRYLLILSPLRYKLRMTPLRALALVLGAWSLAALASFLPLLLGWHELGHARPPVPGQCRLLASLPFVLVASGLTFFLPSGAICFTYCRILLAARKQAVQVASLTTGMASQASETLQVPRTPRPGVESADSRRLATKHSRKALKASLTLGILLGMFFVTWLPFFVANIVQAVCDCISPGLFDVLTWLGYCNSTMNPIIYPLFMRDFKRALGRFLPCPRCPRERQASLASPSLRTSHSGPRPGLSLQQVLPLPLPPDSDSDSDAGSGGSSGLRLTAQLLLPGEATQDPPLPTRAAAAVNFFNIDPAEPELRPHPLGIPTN
- ASSAY DETAILS: Displacement of [3H]-LSD from human 5-HT6 receptor expressed in HEK293 cells at 0.01 uM in presence of serotonin incubated for 60 mins
- Assay type: cell-based
Active and inactive are the calls of the source. No cut-off for these calls is given here.
REPORTED ENDPOINT: inhibition

Solved entries:
COc1ccc(S(=O)(=O)NCCN2CCC(CCC(=O)c3cc(Cl)c(N)cc3OC)CC2)cc1OC :: 3%
COc1ccc(S(=O)(=O)CCCN2CCC(CCC(=O)c3cc(Cl)c(N)cc3OC)CC2)cc1 :: 10%
COc1cc(N)c(Cl)cc1C(=O)CCC1CCN(CCNS(=O)(=O)c2ccc(N)c(Br)c2)CC1 :: 39%
COc1cc(N)c(Cl)cc1C(=O)CCC1CCN(CCNS(=O)(=O)c2ccc(NC(C)=O)cc2)CC1 :: 7%
COc1ccc(S(=O)(=O)NCCN2CCC(CCC(=O)c3cc(Cl)c(N)cc3OC)CC2)cc1 :: 36%

Consider COc1cc(N)c(Cl)cc1C(=O)CCC1CCN(CCNS(=O)(=O)c2ccc(N)cc2)CC1 . Its measured inhibition is 7%

For reference, reported inhibition for COc1ccc(S(=O)(=O)NCCCN2CCC(CCC(=O)c3cc(Cl)c(N)cc3OC)CC2)cc1 stands at inactive

Entry under test: COc1ccc(S(=O)(=O)N2CCC(CCC(=O)c3cc(Cl)c(N)cc3OC)CC2)cc1 . Its inhibition was inactive

Summary for this compound, COc1cc(N)c(Cl)cc1C(=O)CCC1CCN(CCNS(=O)(=O)c2cc(Br)ccc2Br)CC1 : inhibition is 16%

Lab note: measured inhibition of COc1ccc(S(=O)(=O)NCCN2CCC(CCC(=O)c3cc(Cl)c(N)cc3OC)CC2)cc1Br was inactive
